test system: HOP-62 complex spheroids with HUVEC/MSC, viability; test: Anticancer human tumor HOP-62 cell line growth inhibition [RAS]; conditions: second compound 3.16 µM; first compound 0.316 µM; active compounds read low;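 further: spheroids exposed to agents for seven days before readout; 100% = DMSO vehicle control viability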
measured metric: viability, T/C (%)
Give the value in % but do not write % after it.

compound	viability, T/C / %
CC1(O)CCCC1n1c(=O)c(C(F)F)cc2cnc(NC3CCN(S(C)(=O)=O)CC3)nc21 (stereo not drawn) + C#Cc1c(F)ccc2cc(O)cc(-c3ncc4c(N5CC6CCC(C5)N6)nc(OCC56CCCN5CC(F)C6)nc4c3F)c12	34
Nc1ccn(C2OC(CO)C(O)C2(F)F)c(=O)n1 (stereo not drawn) + C#Cc1c(F)ccc2cc(O)cc(-c3ncc4c(N5CC6CCC(C5)N6)nc(OCC56CCCN5CC(F)C6)nc4c3F)c12	5.01

Attention now turns to another entry.
Tell me the measured viability, T/C of CCC(CC)c1cc(NC2CCC(N)C2)n2nccc2n1 (stereo not drawn) + C#Cc1c(F)ccc2cc(O)cc(-c3ncc4c(N5CC6CCC(C5)N6)nc(OCC56CCCN5CC(F)C6)nc4c3F)c12 , please.
88.3

---

Tested on: HOP-62 complex spheroids with HUVEC/MSC, viability
Assay: Anticancer human tumor HOP-62 cell line growth inhibition [RAS];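 further: spheroids exposed to agents for seven days before readout; 100% = DMSO vehicle control viability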
Conditions: second compound 0.000949 µM; first compound 0.0316 µM; active compounds read low
Source text: RAS pathway inhibitors in Combinations in Complex Spheroids A high-throughput screen of multi-cell type tumor spheroids was designed to identify active combinations of RAS pathway inhibitors and targeted small molecules. Complex spheroids include a stromal component modeled by human endothelial cells (HUVEC) and fibroblasts modeled by human mesenchymal stem cells (MSCs). […] Compounds. […] If the clinical Cmax for an agent had not been determined, the highest concentration tested was 10 microM. […]
Recorded viability, T/C for the following molecules
Give your result in % as a bare value.

// worked examples, viability, T/C included
molecule	measurement unit	viability, T/C
O=C(c1ccc(F)c(F)c1Nc1ccc(I)cc1F)N1CC(O)([C@@H]2CCCCN2)C1 + CCn1c(-c2cc(N3CCN(C)CC3)cnc2C(C)OC)c2c3cc(ccc31)-c1csc(n1)CC(NC(=O)C1CC1C)C(=O)N1CCCC(N1)C(=O)OCC(C)(C)C2	%	78.7
CCC(CC)c1cc(NC2CCC(N)C2)n2nccc2n1 (stereo not drawn) + CCn1c(-c2cc(N3CCN(C)CC3)cnc2C(C)OC)c2c3cc(ccc31)-c1csc(n1)CC(NC(=O)C1CC1C)C(=O)N1CCCC(N1)C(=O)OCC(C)(C)C2	%	116

API: value(readout=viability, T/C, system=HOP-62 complex spheroids with HUVEC/MSC, viability) for record CC1(O)CCCC1n1c(=O)c(C(F)F)cc2cnc(NC3CCN(S(C)(=O)=O)CC3)nc21 (stereo not drawn) + CCn1c(-c2cc(N3CCN(C)CC3)cnc2C(C)OC)c2c3cc(ccc31)-c1csc(n1)CC(NC(=O)C1CC1C)C(=O)N1CCCC(N1)C(=O)OCC(C)(C)C2
104

Can you look up viability, T/C on HOP-62 complex spheroids with HUVEC/MSC, viability for CC(=O)OC12COC1CC(O)C1(C)C(=O)C(O)C3=C(C)C(OC(=O)C(O)C(NC(=O)OC(C)(C)C)c4ccccc4)CC(O)(C(OC(=O)c4ccccc4)C21)C3(C)C (stereo not drawn) + CCn1c(-c2cccnc2C(C)OC)c2c3cc(ccc31)N1CCOC(CC(NC(=O)C(C(C)C)N(C)C(=O)C3(F)CCN(C(=O)C#CC(C)(C)N(C)C)CC3)C(=O)N3CCCC(N3)C(=O)OCC(C)(C)C2)C1 ?
31

What viability, T/C appears in the records for this molecule with HOP-62 complex spheroids with HUVEC/MSC, viability? NC1c2ccccc2OC12CCN(c1cnc3c(N4CCCc5ncccc54)n[nH]c3n1)CC2 (stereo not drawn) + CCn1c(-c2cc(N3CCN(C)CC3)cnc2C(C)OC)c2c3cc(ccc31)-c1csc(n1)CC(NC(=O)C1CC1C)C(=O)N1CCCC(N1)C(=O)OCC(C)(C)C2
87.9

// lookup viability, T/C | system=HOP-62 complex spheroids with HUVEC/MSC, viability | key= Cc1nc(N2CCC3(CC2)COC(C)C3N)c(CO)nc1Sc1ccnc(N)c1Cl (stereo not drawn) + CCn1c(-c2cccnc2C(C)OC)c2c3cc(ccc31)N1CCOC(CC(NC(=O)C(C(C)C)N(C)C(=O)C3(F)CCN(C(=O)C#CC(C)(C)N(C)C)CC3)C(=O)N3CCCC(N3)C(=O)OCC(C)(C)C2)C1
120

For HOP-62 complex spheroids with HUVEC/MSC, viability, provide viability, T/C of CC(C)NCC(C(=O)N1CCN(c2ncnc3c2C(C)CC3O)CC1)c1ccc(Cl)cc1 (stereo not drawn) + CCn1c(-c2cccnc2C(C)OC)c2c3cc(ccc31)N1CCOC(CC(NC(=O)C(C(C)C)N(C)C(=O)C3(F)CCN(C(=O)C#CC(C)(C)N(C)C)CC3)C(=O)N3CCCC(N3)C(=O)OCC(C)(C)C2)C1 please.
98.8

Notebook entry, HOP-62 complex spheroids with HUVEC/MSC, viability assay: viability, T/C of C[C@@H](NC(=O)c1ncnc(N)c1Cl)c1ncc(C(=O)Nc2cc(C(F)(F)F)c(Cl)cn2)s1 + CCn1c(-c2cc(N3CCN(C)CC3)cnc2C(C)OC)c2c3cc(ccc31)-c1csc(n1)CC(NC(=O)C1CC1C)C(=O)N1CCCC(N1)C(=O)OCC(C)(C)C2 = ?
111

---

Below, each entry is listed alongside its reported viability, T/C.
tested on: HOP-62 complex spheroids with HUVEC/MSC, viability; assay: Anticancer human tumor HOP-62 cell line growth inhibition [RAS]; settings: second compound 0.00949 µM; first compound 3.16 µM; active compounds read low;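 further: spheroids exposed to agents for seven days before readout; 100% = DMSO vehicle control viability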
Number in %, nothing else.

molecule	viability, T/C [%]
CC(=O)OC12COC1CC(O)C1(C)C(=O)C(O)C3=C(C)C(OC(=O)C(O)C(NC(=O)OC(C)(C)C)c4ccccc4)CC(O)(C(OC(=O)c4ccccc4)C21)C3(C)C (stereo not drawn) + CCn1c(-c2cccnc2C(C)OC)c2c3cc(ccc31)N1CCOC(CC(NC(=O)C(C(C)C)N(C)C(=O)C3(F)CCN(C(=O)C#CC(C)(C)N(C)C)CC3)C(=O)N3CCCC(N3)C(=O)OCC(C)(C)C2)C1	39.3
CC(C)NCC(C(=O)N1CCN(c2ncnc3c2C(C)CC3O)CC1)c1ccc(Cl)cc1 (stereo not drawn) + CCn1c(-c2cccnc2C(C)OC)c2c3cc(ccc31)N1CCOC(CC(NC(=O)C(C(C)C)N(C)C(=O)C3(F)CCN(C(=O)C#CC(C)(C)N(C)C)CC3)C(=O)N3CCCC(N3)C(=O)OCC(C)(C)C2)C1	38.5
CC1(O)CCCC1n1c(=O)c(C(F)F)cc2cnc(NC3CCN(S(C)(=O)=O)CC3)nc21 (stereo not drawn) + CCn1c(-c2cccnc2C(C)OC)c2c3cc(ccc31)N1CCOC(CC(NC(=O)C(C(C)C)N(C)C(=O)C3(F)CCN(C(=O)C#CC(C)(C)N(C)C)CC3)C(=O)N3CCCC(N3)C(=O)OCC(C)(C)C2)C1	55.9
NC1c2ccccc2OC12CCN(c1cnc3c(N4CCCc5ncccc54)n[nH]c3n1)CC2 (stereo not drawn) + CCn1c(-c2cc(N3CCN(C)CC3)cnc2C(C)OC)c2c3cc(ccc31)-c1csc(n1)CC(NC(=O)C1CC1C)C(=O)N1CCCC(N1)C(=O)OCC(C)(C)C2	16.5
CC(C)NCC(C(=O)N1CCN(c2ncnc3c2C(C)CC3O)CC1)c1ccc(Cl)cc1 (stereo not drawn) + CCn1c(-c2cc(N3CCN(C)CC3)cnc2C(C)OC)c2c3cc(ccc31)-c1csc(n1)CC(NC(=O)C1CC1C)C(=O)N1CCCC(N1)C(=O)OCC(C)(C)C2	21.5

Looking for the measured viability, T/C of NC1c2ccccc2OC12CCN(c1cnc3c(N4CCCc5ncccc54)n[nH]c3n1)CC2 (stereo not drawn) + CCn1c(-c2cccnc2C(C)OC)c2c3cc(ccc31)N1CCOC(CC(NC(=O)C(C(C)C)N(C)C(=O)C3(F)CCN(C(=O)C#CC(C)(C)N(C)C)CC3)C(=O)N3CCCC(N3)C(=O)OCC(C)(C)C2)C1 , can you help?
14.8

If you can, please state the reported viability, T/C value of CCC(CC)c1cc(NC2CCC(N)C2)n2nccc2n1 (stereo not drawn) + CCn1c(-c2cc(N3CCN(C)CC3)cnc2C(C)OC)c2c3cc(ccc31)-c1csc(n1)CC(NC(=O)C1CC1C)C(=O)N1CCCC(N1)C(=O)OCC(C)(C)C2 .
5.73

Dear colleague, I am looking for the recorded viability, T/C of the following molecule: CC(Nc1ccc2c(c1)OCCn1cc(N3C(=O)OCC3C(F)F)nc1-2)C(N)=O (stereo not drawn) + CCn1c(-c2cccnc2C(C)OC)c2c3cc(ccc31)N1CCOC(CC(NC(=O)C(C(C)C)N(C)C(=O)C3(F)CCN(C(=O)C#CC(C)(C)N(C)C)CC3)C(=O)N3CCCC(N3)C(=O)OCC(C)(C)C2)C1
32.1
